Test system: recRSV A2-L19FD489E-fireSMASh
Assay: microbe, parasite or virus in culture
Assay type: cell-based, Respiratory Syncytial Virus
Conditions: human respiratory syncytial virus, 384-well, four replicate screens, mean ± SD, BEAS-2B co-infection, read-out: % Inhibition (anti-RSV)
RESULT_TYPE: inhibition at 5 µM (%)
One number for each entry, in %.

Sample answers from the record:
CC(C)[C@]12O[C@H]1[C@@H]1O[C@]13[C@]1(O[C@H]1C[C@H]1C4=C(CC[C@@]13C)C(=O)OC4)[C@@H]2O [Triptolide]; 1.5
Cc1nc2ccc(CN(C)c3ccc(C(=O)N[C@@H](CCC(=O)O)C(=O)O)s3)cc2c(=O)[nH]1; 91
Cn1nnc2c(C(N)=O)ncn2c1=O [Temozolomide]; 96

Ask: // inhibition at 5 µM lookup, key: CN(CCOc1ccc(CC2SC(=O)NC2=O)cc1)c1ccccn1 (stereo not shown)
Result: 85

The reported measurements were obtained from patent US10100372B2.
